- System under test: PSE-2 (Pseudomonas aeruginosa, UniProt P14489)
- Experiment summary: Competitive assay with nitrocefin (RSAI)
- Type: biochemical, Ps.aerug. 1973E
- Parameters: Normally, therefore, the beta-lactamase has to be extracted from the cells for the purpose of the present invention; endogenous in cells
Measured property: RSAI
The answer should be written as a number, with no unit following it.

Entry Cn1nnnc1SCC1=C(C(=O)O)N2C(=O)[C@@H](NC(=O)[C@H](O)c3ccccc3)[C@H]2SC1 [Cefaman-dole, Cefamandole] has what RSAI?
0.06

Continue with C[C@@H](O)[C@H]1C(=O)N2C(C(=O)O)=C(SCCN=CN)C[C@H]12 [MK 0787 (N-Formimidoyl-thienamycin), N-Formimidoyl-thienamycin]
0.08

For CC1(C)S[C@@H]2[C@H](/N=C/N3CCCCCC3)C(=O)N2[C@H]1C(=O)O [Mecil-linam, Mecillinam] then?
450

Entry to check: CC1=C(C(=O)O)N2C(=O)[C@@H](NC(=O)[C@H](N)C3=CCC=CC3)[C@H]2SC1 [Cephra-dine, cephradine]
4.2

Request: CO[C@@]1(NC(=O)C(C(=O)O)c2ccc(O)cc2)C(=O)N2C(C(=O)O)=C(CSc3nnnn3C)CO[C@@H]21 (stereo partly drawn) [Moxalactam]
8.2

###

- System under test: OXA-3 (Pseudomonas aeruginosa)
- Experiment summary: Competitive assay with nitrocefin (RSAI)
- Format: biochemical, E. coli R57B
- Set-up: Normally, therefore, the beta-lactamase has to be extracted from the cells for the purpose of the present invention; endogenous in cells
Provide the reported RSAI of each item.
// print number alone

RSAI for CO/N=C(\C(=O)N[C@@H]1C(=O)N2C(C(=O)O)=CCS[C@H]12)c1csc(N)n1 [Cefti-zoxime, ceftizoxime] ?
200

Moving on to CC1(C)S[C@@H]2[C@H](NC(=O)[C@H](N)c3ccccc3)C(=O)N2[C@H]1C(=O)O [Ampi-cillin, ampicillin]
0.2

Entry Cc1onc(-c2ccccc2Cl)c1C(=O)N[C@@H]1C(=O)N2[C@@H]1SC(C)(C)[C@@H]2C(=O)O [Cloxacillin] please
0.01

Another compound to look at: CC1=C(C(=O)O)N2C(=O)[C@@H](NC(=O)[C@H](N)C3=CCC=CC3)[C@H]2SC1 [Cephra-dine, cephradine]
100

Can you handle CC(=O)OCC1=C(C(=O)O)N2C(=O)[C@@H](NC(=O)Cc3cccs3)[C@H]2SC1 [Cephalo-thin, Cephalothin] next?
0.4

O=C(Cc1cccs1)N[C@@H]1C(=O)N2C(C(=O)[O-])=C(C[n+]3ccccc3)CS[C@H]12 [Cephalo-ridine, cephaloridine] , same question.
4.4

###

- System under test: OXA-3 (Pseudomonas aeruginosa, UniProt Q51429)
- Experiment summary: Competitive assay with nitrocefin (RSAI)
- Format: biochemical, E. coli R57B
- Design: Normally, therefore, the beta-lactamase has to be extracted from the cells for the purpose of the present invention; endogenous in cells
Marks after values point to notes of the source that are not given here.
Measured property: RSAI

Query the reported RSAI for OXA-3 (Pseudomonas aeruginosa, UniProt Q51429); item: `CO/N=C(\C(=O)N[C@@H]1C(=O)N2C(C(=O)O)=C(COC(C)=O)CS[C@H]12)c1csc(N)n1`
15

Same again, this time with `O=C(O)[C@H]1/C(=C/CO)O[C@@H]2CC(=O)N21`
1.6*

Also need CC1(C)S[C@@H]2[C@H](NC(=O)C(C(=O)O)c3ccccc3)C(=O)N2[C@H]1C(=O)O (stereo partly shown) , thanks.
12

Same question, `CO/N=C(\C(=O)N[C@@H]1C(=O)N2C(C(=O)O)=C(CSc3nc(=O)c(=O)[nH]n3C)CS[C@H]12)c1csc(N)n1` this time
3

Follow-up item: CO[C@@]1(NC(=O)C(C(=O)O)c2ccc(O)cc2)C(=O)N2C(C(=O)O)=C(CSc3nnnn3C)CO[C@@H]21 (stereo partly shown)
1*

Next up: `CC1(C)S[C@@H]2[C@H](NC(=O)[C@H](NC(=O)N3CCNC3=O)c3ccccc3)C(=O)N2[C@H]1C(=O)O`
9

Entry `C[C@@H](O)[C@H]1C(=O)N2C(C(=O)O)=C(SCCN=CN)C[C@H]12` please
0.0016*

###

- System: PSE-3
- Experiment summary: Competitive assay with nitrocefin (RSAI)
- Format: biochemical, Ps.aerug. 1920E
Measured property: RSAI
Give the figure by itself; no unit, no explanation.

Data request, read-out RSAI, for CC1(C)S[C@@H]2[C@H](NC(=O)[C@H](NC(=O)N3CCNC3=O)c3ccccc3)C(=O)N2[C@H]1C(=O)O [Azlo-cillin, Azlocillin]
0.54

Would you kindly repeat that for CO/N=C(\C(=O)N[C@@H]1C(=O)N2C(C(=O)O)=C(COC(N)=O)CS[C@H]12)c1ccco1 [Cefuroxime] ?
12

Next: CO[C@@]1(NC(=O)Cc2cccs2)C(=O)N2C(C(=O)O)=C(COC(N)=O)CS[C@@H]21 [Cefoxi-tin, cefoxitin]
11.4

Further, for CCN1CCN(C(=O)N[C@@H](C(=O)N[C@@H]2C(=O)N3C(C(=O)O)=C(CSc4nnnn4C)CS[C@H]23)c2ccc(O)cc2)C(=O)C1=O [Cefopera-zone, cefoperazone] ?
0.07

###

- System under test: Chromosomal, induced beta-lactamase enzyme (Pseudomonas aeruginosa, UniProt P24735)
- Construct: Normally, therefore, the beta-lactamase has to be extracted from the cells for the purpose of the present invention; endogenous in cells; host or cells: Pseudomonas aeruginosa 1937E grown with ampicillin
- Experiment summary: Competitive assay with nitrocefin (RSAI)
- Assay type: biochemical, Ps.aerug. 1937E + ampicillin
Give measured RSAI for each item. Keep answers brief.
Give the figure only, with no unit attached.

Any idea what RSAI was measured for `CC1(C)S[C@@H]2[C@H](NC(=O)[C@H](N)c3ccccc3)C(=O)N2[C@H]1C(=O)O` ?
0.12

Try this molecule too: `CC(=O)OCC1=C(C(=O)O)N2C(=O)[C@@H](NC(=O)Cc3cccs3)[C@H]2SC1`
0.7

Also check `CC1(C)S[C@@H]2[C@H](NC(=O)[C@H](N)c3ccc(O)cc3)C(=O)N2[C@H]1C(=O)O`
0.035

Next entry: `CO/N=C(\C(=O)N[C@@H]1C(=O)N2C(C(=O)O)=C(COC(C)=O)CS[C@H]12)c1csc(N)n1`
0.004

Further, for `CC1(C)S[C@@H]2[C@H](/N=C/N3CCCCCC3)C(=O)N2[C@H]1C(=O)O` ?
68

###

- System under test: TEM-2 (Escherichia coli, UniProt P62593, Q37K)
- Experiment summary: Competitive assay with nitrocefin (RSAI)
- Format: biochemical, E. coli 1725E
Marks after values point to notes of the source that are not given here.
Measured property: RSAI

For TEM-2 (Escherichia coli, UniProt P62593, Q37K), provide RSAI of CC(C)(O/N=C(\C(=O)N[C@@H]1C(=O)N2C(C(=O)[O-])=C(C[n+]3ccccc3)CS[C@H]12)c1csc(N)n1)C(=O)O [Ceftazidime (GR 20,263), Ceftazidime] please.
1500

Would you mind doing CC1(C)S[C@@H]2[C@H](NC(=O)[C@H](N)c3ccccc3)C(=O)N2[C@H]1C(=O)O [Ampi-cillin, ampicillin] as well?
2.6

Cool, now O=C(O)[C@H]1/C(=C/CO)O[C@@H]2CC(=O)N21 [Clavulanic acid]
0.002*

// query: Cc1nnc(SCC2=C(C(=O)O)N3C(=O)[C@@H](NC(=O)Cn4cnnn4)[C@H]3SC2)s1 [Cephalo-zolin, Cephalozolin]
48

Moving on to CO[C@@]1(NC(=O)Cc2cccs2)C(=O)N2C(C(=O)O)=C(COC(N)=O)CS[C@@H]21 [Cefoxi-tin, cefoxitin]
60*

Also check CC1(C)[C@H](C(=O)O)N2C(=O)C[C@H]2S1(=O)=O [CP 45,899]
0.04*

Now try C[C@@H](O)[C@H]1C(=O)N2C(C(=O)O)=C(SCCN=CN)C[C@H]12 [MK 0787 (N-Formimidoyl-thienamycin), N-Formimidoyl-thienamycin] .
0.1

###

- System under test: SHV-1 (Escherichia coli)
- Experiment summary: Competitive assay with nitrocefin (RSAI)
- Format: biochemical, E. coli 2008E
- Parameters: the beta-lactamase has to be extracted from the cells for the purpose of the present invention; made in house; host or cells: E. coli 2008E (crude cell extract)
Measured property: RSAI
A bare number is all that is needed in reply.

Param item = `CCN1CCN(C(=O)N[C@@H](C(=O)N[C@@H]2C(=O)N3C(C(=O)O)=C(CSc4nnnn4C)CS[C@H]23)c2ccc(O)cc2)C(=O)C1=O` ; retrieve measured RSAI.
4.5

Follow-up entry: `CC1(C)S[C@@H]2[C@H](NC(=O)[C@H](N)c3ccccc3)C(=O)N2[C@H]1C(=O)O`
3

Quick one: `CO/N=C(\C(=O)N[C@@H]1C(=O)N2C(C(=O)O)=C(CSc3nc(=O)c(=O)[nH]n3C)CS[C@H]12)c1csc(N)n1`
160

Then what about the compound `O=C(Cc1cccs1)N[C@@H]1C(=O)N2C(C(=O)[O-])=C(C[n+]3ccccc3)CS[C@H]12` ?
30

Now this one: `CC1(C)S[C@@H]2[C@H](NC(=O)[C@H](NC(=O)N3CCNC3=O)c3ccccc3)C(=O)N2[C@H]1C(=O)O`
1.6

And `Cc1nnc(SCC2=C(C(=O)O)N3C(=O)[C@@H](NC(=O)Cn4cnnn4)[C@H]3SC2)s1` ?
15

What about this compound? `Cc1onc(-c2ccccc2Cl)c1C(=O)N[C@@H]1C(=O)N2[C@@H]1SC(C)(C)[C@@H]2C(=O)O`
2

Please give the result for `CC1(C)S[C@@H]2[C@H](NC(=O)[C@H](C(=O)O)c3ccsc3)C(=O)N2[C@H]1C(=O)O` too.
0.23

What about `CC1(C)S[C@@H]2[C@H](NC(=O)Cc3ccccc3)C(=O)N2[C@H]1C(=O)O` ?
1

Queued: `CO/N=C(\C(=O)N[C@@H]1C(=O)N2C(C(=O)O)=C(COC(C)=O)CS[C@H]12)c1csc(N)n1`
400

Then this compound: `CC1(C)S[C@@H]2[C@H](NC(=O)[C@H](NC(=O)N3CCN(S(C)(=O)=O)C3=O)c3ccccc3)C(=O)N2[C@H]1C(=O)O`
3

Also, `CC1=C(C(=O)O)N2C(=O)[C@@H](NC(=O)[C@H](N)C3=CCC=CC3)[C@H]2SC1` please.
15

Continue with `CC(=O)OCC1=C(C(=O)O)N2C(=O)[C@@H](NC(=O)Cc3cccs3)[C@H]2SC1`
7
